Target: Progesterone receptor (Homo sapiens, UniProt P06401)
Sequence (P06401 whole entry): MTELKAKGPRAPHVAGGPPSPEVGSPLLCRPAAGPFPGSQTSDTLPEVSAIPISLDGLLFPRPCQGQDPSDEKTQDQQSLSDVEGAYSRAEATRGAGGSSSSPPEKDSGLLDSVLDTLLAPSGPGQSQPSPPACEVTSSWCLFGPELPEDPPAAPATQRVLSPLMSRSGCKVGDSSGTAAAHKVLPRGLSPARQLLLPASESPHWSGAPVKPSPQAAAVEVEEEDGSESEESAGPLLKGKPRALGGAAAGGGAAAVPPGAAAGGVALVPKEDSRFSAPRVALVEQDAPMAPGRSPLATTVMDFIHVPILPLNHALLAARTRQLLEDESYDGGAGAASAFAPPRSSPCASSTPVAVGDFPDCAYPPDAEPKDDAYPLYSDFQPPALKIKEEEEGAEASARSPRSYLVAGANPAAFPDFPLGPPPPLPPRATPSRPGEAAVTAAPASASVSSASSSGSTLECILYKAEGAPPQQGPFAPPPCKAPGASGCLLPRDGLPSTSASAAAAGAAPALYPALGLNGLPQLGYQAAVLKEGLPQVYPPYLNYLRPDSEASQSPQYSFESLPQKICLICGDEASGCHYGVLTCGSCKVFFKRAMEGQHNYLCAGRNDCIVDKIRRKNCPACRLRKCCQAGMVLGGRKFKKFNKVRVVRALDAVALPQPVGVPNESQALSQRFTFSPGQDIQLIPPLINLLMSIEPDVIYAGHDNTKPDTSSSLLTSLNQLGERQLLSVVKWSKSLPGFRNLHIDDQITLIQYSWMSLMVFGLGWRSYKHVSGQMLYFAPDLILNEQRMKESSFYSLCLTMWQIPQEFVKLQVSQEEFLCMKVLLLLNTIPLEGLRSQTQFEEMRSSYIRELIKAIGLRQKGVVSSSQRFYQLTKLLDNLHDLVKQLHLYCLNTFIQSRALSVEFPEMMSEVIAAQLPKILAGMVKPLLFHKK
Test: Displacement of TAMRA labeled mifepristone at human progesterone receptor in insect cell
pIC50: −log10 of the molar value.
Listing of recorded pIC50 by entry.

Would you please look over these solved cases?
1. COc1ccc(F)cc1C(C)(C)CC(O)(Cc1c(Cl)cccc1Cl)C(F)(F)F (centres undefined) | < 5.70
2. COc1ccc(F)cc1C(C)(C)CC(O)(Cc1cc(Cl)ccc1Cl)C(F)(F)F (centres undefined) | < 5.70
3. COc1ccc(F)cc1C(C)(C)CC(O)(Cc1ccccc1)C(F)(F)F (centres undefined) | < 5.89
4. COc1ccc(F)cc1C(C)(C)CC(O)(Cc1cc(C)c(C#N)c(C)c1)C(F)(F)F (centres undefined) | 6.41

Prompt: Enter recorded pIC50 with Progesterone receptor (Homo sapiens, UniProt P06401) for COc1ccc(F)cc1C(C)(C)CC(O)(Cc1cc(C)cc(C)c1)C(F)(F)F (centres undefined) here.
Response: < 6.45

Prompt: State measured pIC50 of the molecule COc1ccc(F)cc1C(C)(C)CC(O)(Cc1cccc(Cl)c1)C(F)(F)F (centres undefined) with Progesterone receptor (Homo sapiens, UniProt P06401).
Response: < 5.70

Prompt: State the measured pIC50 (Progesterone receptor (Homo sapiens, UniProt P06401)) of COc1ccc(CC(O)(CC(C)(C)c2cc(F)ccc2OC)C(F)(F)F)cc1 (centres undefined)
Response: < 5.85

Prompt: Fill in pIC50 for COc1ccc(F)cc1C(C)(C)CC(O)(Cc1ccc(Cl)cc1Cl)C(F)(F)F (centres undefined) tested with Progesterone receptor (Homo sapiens, UniProt P06401).
Response: 6.18

Prompt: Find the measured pIC50 of COc1ccc(F)cc1C(C)(C)CC(O)(Cc1cc(Cl)cc(C#N)c1)C(F)(F)F (centres undefined) with Progesterone receptor (Homo sapiens, UniProt P06401) as test system.
Response: < 5.70
